- TARGET: UniProtKB P56373
- Sequence (P56373 whole entry): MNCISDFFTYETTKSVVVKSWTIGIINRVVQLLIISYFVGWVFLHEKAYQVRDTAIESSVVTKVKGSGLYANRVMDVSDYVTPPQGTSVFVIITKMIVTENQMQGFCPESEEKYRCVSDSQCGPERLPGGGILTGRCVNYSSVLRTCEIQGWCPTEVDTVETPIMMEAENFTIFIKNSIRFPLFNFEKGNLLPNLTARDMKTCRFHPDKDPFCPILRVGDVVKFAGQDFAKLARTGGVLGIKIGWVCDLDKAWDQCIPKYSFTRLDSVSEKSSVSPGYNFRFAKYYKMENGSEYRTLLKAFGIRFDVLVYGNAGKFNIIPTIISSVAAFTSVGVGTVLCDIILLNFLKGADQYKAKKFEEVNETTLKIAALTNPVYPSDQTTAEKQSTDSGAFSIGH
- ASSAY_METHOD_TEXT: Intracellular calcium measurement (FLIPR, Fluo-4) of antagonist activity at human P2X3 receptors
- Assay type: cell-based
- EXPERIMENTAL_CONDITIONS: human P2X3, FLIPR calcium assay, agonist α,β-Me-ATP; read-out: hP2X3 IC50
OBSERVABLE: IC50 (nM)

Sample records with IC50:
{"MOLECULE": "Cc1cnc(-c2cc(O[C@@H]3CCOC3)cc(C(=O)N[C@H](C)c3ccc(C(F)(F)F)nc3)c2)s1 [Example 157]", "RESULT_UNITS": "nM", "IC50": 17}
{"MOLECULE": "C[C@@H](NC(=O)c1cc(OCC2CCOCC2)cc(-c2ncc(C3CCC3)s2)c1)c1cnc(C(F)(F)F)nc1 [Example 120]", "RESULT_UNITS": "nM", "IC50": 14}
{"MOLECULE": "Cc1ccc([C@@H](C)NC(=O)c2cc(OC[C@@H]3CCCO3)cc(-c3ncc(C(C)C)s3)c2)nn1 [Example 288]", "RESULT_UNITS": "nM", "IC50": 150}
{"MOLECULE": "Cc1ccc(CNC(=O)c2cc(OCC3CCOCC3)cc(-c3ncc(C)s3)c2)nn1 [Example 93]", "RESULT_UNITS": "nM", "IC50": 8}

a: CCOC(=O)N1CC2(COc3cc(C(=O)N[C@H](C)c4cnc(C(F)(F)F)nc4)cc(-c4ncc(C)s4)c3)CC1CO2 (stereo partly drawn) [Example 410]
b: C#CCOc1cc(C(=O)N[C@@H](C)c2cnc(C(F)(F)F)nc2)cc(-c2ncc(C)s2)c1 [Example 144]
c: Cc1cnc(-c2cc(OC3COC3)cc(C(=O)N[C@H](C)c3cnc(C(F)(F)F)nc3)c2)s1 [Example 48]
Hello, I need these entries ordered by IC50, highest reading first. Thanks! Quick reminder: the answer is the labels in the order asked. b, a, c

P: CCc1cnc(-c2cc(OCC3(F)CN(C)C3)cc(C(=O)N[C@H](C)c3ccc(C(F)(F)F)nc3)c2)s1 [Example 387]
Q: Cc1ccc([C@@H](C)NC(=O)c2cc(O[C@@H]3CCOC3)cc(-c3ncc(Cl)s3)c2)nn1 [Example 317]
Hello, I am sorting some records. Could you say if P or Q has the smaller IC50 value? Select an item and report its label. P

P: Cc1cnc(-c2cc(OC[C@@H]3COCCN3C)cc(C(=O)N[C@H](C)c3ccc(C(F)(F)F)nn3)c2)s1 [Example 389]
Q: Cc1ccc(Oc2cc(C(=O)N[C@H](C)c3cnc(C(F)(F)F)nc3)cc(-c3ncc(C)s3)c2)nn1 [Example 170]
R: Cc1ccc([C@@H](C)NC(=O)c2cc(O[C@@H]3CCOC3)cc(-c3ncc(C(C)C)s3)c2)nn1 [Example 246]
S: C#CCOc1cc(C(=O)N[C@H](C)c2ccc(C(F)(F)F)nn2)cc(-c2ncc(C)s2)c1 [Example 38]
Ranking field: IC50; order: falling. Note for the reader: the ranking is given by listing the labels in the order requested. R, Q, S, P
(R: 266 nM, Q: 165 nM, S: 55 nM, P: 18 nM)

a: Cc1cc(Oc2cc(C(=O)N[C@H](C)c3cnc(C)nc3)cc(-c3ncc(C)s3)c2)ccn1 [Example 106]
b: Cc1cnc(-c2cc(OC3CCOCC3)cc(C(=O)N[C@@H](C)c3cnc(C(F)(F)F)nc3)c2)s1 [Example 145]
Given the two records a and b , choose the one whose IC50 value is lower. State the label of the item chosen. a
